- Test system: NCI/ADR-RES ovarian
- assay-info: NCI-60 one-dose screen, 48 h (100 = growth as untreated, 0 = no growth, -100 = all killed)
- experimental-setup: 10 µM unless noted
The panel holds about 83,000 compounds, 20% with a hit somewhere; the sample as a whole holds those more often.
Listing of entries alongside the reported growth.
A number alone suffices; assume %.

- CC(C)(C)c1ccc2oc(=O)n(SC(Cl)(Cl)Cl)c2c1: 100
- O=C1CCc2ccccc2N1: 101
- CC(=O)ON1CCCC(P(=O)(OCOC(=O)C(C)(C)C)OCOC(=O)C(C)(C)C)C1=O (stereo not given): -2.01
- CCCS(=O)(=O)Nc1ccc(F)c(C(=O)c2c[nH]c3ncc(-c4ccc(OCCCC5CCCCN5)nc4)cc23)c1F (stereo not given): 100

Incoming: Give the measured growth of `COc1ccc(Nc2cc(NC(=O)CNc3cc(OC)c(Cl)c(OC)c3Cl)ncn2)cc1` .
Outgoing: 84.8
